Assay: Cytotoxicity against LPS-stimulated mouse RAW264.7 cells after 24 hrs by MTT assay
Format: toxicity, cell-based
Conditions: LPS-stimulated RAW264.7 cells
Could you mark each record rule met if its CC50 at 24 h falls strictly under 50 µM, and rule not met if it equals or exceeds it?

compound	label
S=C(Nc1ccccc1)N1CCN(c2ccccc2Cl)CC1	rule met
CN(C[C@H](O)[C@@H](O)[C@H](O)[C@H](O)CO)C(=S)NCc1ccccc1	rule not met
CC(C)c1ccc(NC(=S)NCc2ccccc2)cc1	rule not met
O=C(C1CCCO1)N1CCN(C(=S)Nc2ccccc2)CC1 (centres undefined)	rule not met
COc1cc(NC(=S)Nc2ccccc2)cc(OC)c1OC	rule not met
COc1cc(NC(=S)N2CCN(c3ccc(O)cc3)CC2)cc(OC)c1OC	rule met
S=C(NCCc1ccccc1)N1CCN(c2nc3ccccc3[nH]2)CC1	rule met
S=C(NCCc1ccccc1)N1CCOCC1	rule not met
OCCNC(=S)Nc1ccccc1	rule not met
S=C(Nc1ccccc1)N1CCN(c2ccccn2)CC1	rule not met
O=C(O)c1ccc(NC(=S)NCc2ccccc2)cc1O	rule not met
COc1cc(NC(=S)Nc2cc(OC)c(OC)c(OC)c2)cc(OC)c1OC	rule not met
S=C(NCc1ccccc1)Nc1ccc2c(c1)OCO2	rule not met
S=C(NCc1ccccc1)N1CCN(Cc2ccc3c(c2)OCO3)CC1	rule not met
O=C(C1CCCO1)N1CCN(C(=S)NCc2ccccc2)CC1 (centres undefined)	rule not met
S=C(Nc1ccccc1)N1CCN(c2ncccn2)CC1	rule not met
COc1ccc(CN2CCN(C(=S)Nc3ccccc3)CC2)c(OC)c1OC	rule met
CCN(CC)C(=S)NCc1ccccc1	rule not met
CCN(CC)C(S)=NCCc1ccccc1	rule not met
CC(C)NC(=S)NCCc1ccccc1	rule not met
COc1ccc(NC(S)=Nc2ccccc2)cc1	rule met
O=C(NNC(=S)NCc1ccccc1)c1ccccc1	rule met
OCCN(CCO)C(=S)Nc1ccccc1	rule not met
CC(C)NC(=S)NCc1ccccc1	rule not met
COc1cc(NC(=S)NC#N)cc(OC)c1OC	rule not met
S=C(NCc1ccccc1)Nc1ccc2c(c1)OCCO2	rule not met
S=C(Nc1ccccc1)Nc1ccccn1	rule not met
CCCCN1CCN(C(=S)Nc2ccccc2)CC1	rule not met
S=C(Nc1ccccc1)N1CCN(Cc2ccc3c(c2)OCO3)CC1	rule not met
N#CNC(=S)NCCc1ccccc1	rule not met
S=C(NCCc1ccccc1)N1CCN(c2ncccn2)CC1	rule met
S=C(NCc1ccccc1)Nc1ccccn1	rule not met
S=C(NCc1ccccc1)N(c1ccccc1)c1ccccc1	rule not met
CCCCNC(=S)NCc1ccccc1	rule not met
S=C(NCCc1ccccc1)N1CCN(c2ccccn2)CC1	rule met
Oc1ccc(N2CCN(C(=S)Nc3ccccc3)CC2)cc1	rule not met
O=C(NNC(=S)NCc1ccccc1)c1ccncc1	rule not met
Oc1cccc(NC(=S)NCc2ccccc2)c1	rule not met
COc1ccc(NC(=S)NCc2ccccc2)cc1	rule not met
COc1cc(NC(=S)NCCc2ccccc2)cc(OC)c1OC	rule not met
S=C(Nc1ccccc1)Nc1ccc(Br)cc1	rule met
CCCCN1CCN(C(=S)NCc2ccccc2)CC1	rule not met
S=C(NCc1ccccc1)N1CCN(c2ccccc2)CC1	rule not met

====

# key: entry, value: selectivity ratio
Assay: Selectivity index, ratio of CC50 for cytotoxicity against LPS-stimulated mouse RAW264.7 cells to MIC50 for antitubercular activity against Mycobacterium tuberculosis H37Rv
Type: toxicity, cell-based
Conditions: LPS-stimulated RAW264.7 cells, read-out: Selectivity Index

molecule	selectivity ratio
CN(C[C@H](O)[C@@H](O)[C@H](O)[C@H](O)CO)C(=S)NCc1ccccc1	0.8
O=C(C1CCCO1)N1CCN(C(=S)Nc2ccccc2)CC1 (stereo unspecified)	> 8.6
COc1ccc(CN2CCN(C(=S)Nc3ccccc3)CC2)c(OC)c1OC	2.2
OCCN(CCO)C(=S)Nc1ccccc1	> 1
S=C(Nc1ccccc1)N1CCN(Cc2ccc3c(c2)OCO3)CC1	> 8.4
CCCCN1CCN(C(=S)NCc2ccccc2)CC1	> 1.3
